- System: Tov-21-G
- protocolNotes: Primary qHTS to identify gynecologic anti-cancer compounds using libraries of approved drugs and bioactive compounds (AID 1345084); note: nearly all actives have a fitted effect of over 55% in size; note: potency is the fitted concentration of half-maximal effect
- measurementContext: Gynecologic cancer cell panel viability, ATPlite luminescence, 48 h; series mostly up to 57.5 µM
Records with an inconclusive call do not appear. Activity calls are given as the source filed them. Calls come from the whole dose curve; as a rule, active = well fitted cell-killing curve with a large enough effect; inconclusive = small, poorly fitted or top-dose-only effect, or effect the other way; inactive = flat fitted curve, though single readings scatter.
readoutKind: Potency

O=C([C@@H](Cc1cccc(C(F)(F)F)c1)NS(=O)(=O)c1cc(F)c2c(c1)CCNC2)N1CCCC1
inactive
COc1ccccc1-c1ccc(-c2cn(C(=O)N3CCCCC3Cc3ccccc3)nn2)cc1 (centres undefined)
inactive
O=S1(=O)CCN(Cc2cc(NCC3CCOCC3)c3[nH]c(-c4ccccc4)cc3c2)CC1
inactive
OC1(CN2CCC(COc3noc4cccc(O[C@@H]5CCOC5)c34)CC2)CCOCC1
inactive
CCCNCCc1ccc(NS(=O)(=O)c2ccc(OC(F)(F)F)cc2)cc1
inactive
CCC/C=C/C=C/C1CC(O)C2(O)C(=O)OCC12 (centres undefined)
inactive
Cn1ncc(Cl)c1-c1cc(C(=O)N[C@H](CN)Cc2cccc(F)c2)sc1Cl
1.58 µM (active)
CC(C)CCNC(=O)c1ccc2c(c1)nc(Nc1n[nH]c3ccc(-c4ccccc4OC(F)(F)F)cc13)n2C1CCC(O)CC1 (centres undefined)
inactive

Form: Entry = "CC(C)C[C@@H](C(=O)N[C@@H](Cc1ccc(OCc2ccccc2)cc1)C(=O)NC(C)(C)C)N(C)Cc1ccc(C(C)(C)C)cc1" | System = Tov-21-G | Potency = ____
inactive

Record "NC(=O)c1nc(Nc2ccccc2)sc1NC(=O)C1CCCCC1" : what is its Potency with Tov-21-G?
inactive

Kindly state the measured Potency obtained for "CN1CCC(NC(=O)c2cc(-c3c(O)cc(O)cc3Oc3ccc([N+](=O)[O-])cc3)on2)CC1" with Tov-21-G.
0.562 µM (active)

Under Tov-21-G: Potency value of "COC(=O)C(Cc1ccc(OCCn2c(=O)sc3cc(C(=O)c4ccccc4)ccc32)cc1)C(=O)OC" ?
inactive

Form field - read-out: Potency; system: Tov-21-G; submitted item: CC(C)(O)C1Cc2c(ccc(C(=O)CCc3ccccc3)c2O)O1 (centres undefined)
12.6 µM (active)

Provide the documented Potency with Tov-21-G as the system for "O=C(CSc1nc2ccccc2c(=O)n1-c1ccccc1)Nc1ccc2c(c1)CCC2"
inactive

Give the reported Potency for "C=CC(=O)N1CCC(Oc2cc3c(Nc4ccc(Cl)c(Cl)c4F)ncnc3cc2OC)CC1" (system: Tov-21-G).
25.1 µM (active)

I'm curious: which Potency was measured for "C=C(C)C(=O)O[C@H]1[C@H]2C(=C)C(=O)O[C@@H]2/C=C(\CO)CC/C=C(/C=O)[C@@H]1O" tested on Tov-21-G?
inactive

What Potency appears in the records for this molecule with Tov-21-G? "O=C(NCc1ccccc1-c1ccccc1C(=O)NCCc1ccccn1)OCc1ccccc1"
inactive

What value of Potency on Tov-21-G does "CC(=O)[C@H]1CC[C@H]2[C@@H]3CC=C4C[C@@H](OS(=O)(=O)O)CC[C@]4(C)[C@H]3CC[C@]12C" have?
inactive

Short answer please: Potency, Tov-21-G, entry CCOC(=O)N1c2ccc(C(F)(F)F)cc2C(N(Cc2cc(C(F)(F)F)cc(C(F)(F)F)c2)C(=O)OC)CC1CC (centres undefined)
inactive
